Values compiled from the NIST ThermoML archive (doi:10.1021/je800316b).

Conditions: 333.15 K; 7500 kPa; Liquid
Quantity Name: mass density (kg/m3)

CCCCCCCCCCn1cc[n+](C)c1.O=S(=O)([N-]S(=O)(=O)C(F)(F)F)C(F)(F)F	1251.9
CCOS(=O)(=O)[O-].CCn1cc[n+](C)c1 [1-ethyl-3-methylimidazolium ethyl sulfate]	1221.6
CCn1cc[n+](C)c1.COS(=O)(=O)[O-] [1-ethyl-3-methylimidazolium methylsulfate]	1264.5
CCn1cc[n+](CC)c1.O=S(=O)([N-]S(=O)(=O)C(F)(F)F)C(F)(F)F [1,3-diethylimidazolium bis[(trifluoromethyl)sulfonyl]imide]	1432.6

====

mass density by entry:
Settings: 373.15 K; 15000 kPa; Liquid
Quantity Name: mass density (kg/m3)

CCCCCCCCCCn1cc[n+](C)c1.O=S(=O)([N-]S(=O)(=O)C(F)(F)F)C(F)(F)F	1224.2
CCn1cc[n+](C)c1.COS(=O)(=O)[O-] [1-ethyl-3-methylimidazolium methylsulfate]	1238.8
CCn1cc[n+](CC)c1.O=S(=O)([N-]S(=O)(=O)C(F)(F)F)C(F)(F)F [1,3-diethylimidazolium bis[(trifluoromethyl)sulfonyl]imide]	1399.1
CCOS(=O)(=O)[O-].CCn1cc[n+](C)c1 [1-ethyl-3-methylimidazolium ethyl sulfate]	1197.7

====

In this section we review reported mass density values for a set of compounds.
Conditions: 333.15 K; 30000 kPa; Liquid
Quantity Name: mass density (kg/m3)

CCCCCCCCCCn1cc[n+](C)c1.O=S(=O)([N-]S(=O)(=O)C(F)(F)F)C(F)(F)F	1269.4
CCn1cc[n+](C)c1.COS(=O)(=O)[O-] [1-ethyl-3-methylimidazolium methylsulfate]	1274
CCOS(=O)(=O)[O-].CCn1cc[n+](C)c1 [1-ethyl-3-methylimidazolium ethyl sulfate]	1231.5
CCn1cc[n+](CC)c1.O=S(=O)([N-]S(=O)(=O)C(F)(F)F)C(F)(F)F [1,3-diethylimidazolium bis[(trifluoromethyl)sulfonyl]imide]	1450.9

====

Conditions: 353.15 K; 2500 kPa; Liquid
Numbers after ± are expanded uncertainties.
Quantity Name: mass density

CCn1cc[n+](C)c1.COS(=O)(=O)[O-] [1-ethyl-3-methylimidazolium methylsulfate]	1247.5 ± 2.4 kg/m3
CCn1cc[n+](CC)c1.O=S(=O)([N-]S(=O)(=O)C(F)(F)F)C(F)(F)F [1,3-diethylimidazolium bis[(trifluoromethyl)sulfonyl]imide]	1407.5 ± 2.8 kg/m3
CCOS(=O)(=O)[O-].CCn1cc[n+](C)c1 [1-ethyl-3-methylimidazolium ethyl sulfate]	1205.3 ± 2.3 kg/m3
CCCCCCCCCCn1cc[n+](C)c1.O=S(=O)([N-]S(=O)(=O)C(F)(F)F)C(F)(F)F	1230.9 ± 2.4 kg/m3

====

Conditions: 393.15 K; 10000 kPa; Liquid
Quantity Name: mass density (kg/m3)

CCn1cc[n+](CC)c1.O=S(=O)([N-]S(=O)(=O)C(F)(F)F)C(F)(F)F [1,3-diethylimidazolium bis[(trifluoromethyl)sulfonyl]imide]	1375.1
CCn1cc[n+](C)c1.COS(=O)(=O)[O-] [1-ethyl-3-methylimidazolium methylsulfate]	1223.1
CCCCCCCCCCn1cc[n+](C)c1.O=S(=O)([N-]S(=O)(=O)C(F)(F)F)C(F)(F)F	1203.4
CCOS(=O)(=O)[O-].CCn1cc[n+](C)c1 [1-ethyl-3-methylimidazolium ethyl sulfate]	1182

====

Settings: 393.15 K; 25000 kPa; Liquid
Measured mass density accompanies every entry in the list below.
Quantity Name: mass density (kg/m3)

CCCCCCCCCCn1cc[n+](C)c1.O=S(=O)([N-]S(=O)(=O)C(F)(F)F)C(F)(F)F	1217.3
CCn1cc[n+](CC)c1.O=S(=O)([N-]S(=O)(=O)C(F)(F)F)C(F)(F)F [1,3-diethylimidazolium bis[(trifluoromethyl)sulfonyl]imide]	1389.6
CCOS(=O)(=O)[O-].CCn1cc[n+](C)c1 [1-ethyl-3-methylimidazolium ethyl sulfate]	1189.7
CCn1cc[n+](C)c1.COS(=O)(=O)[O-] [1-ethyl-3-methylimidazolium methylsulfate]	1230.3

====

Details: 298.15 K; 15000 kPa; Liquid
Quantity Name: mass density (kg/m3)

CCn1cc[n+](C)c1.COS(=O)(=O)[O-] [1-ethyl-3-methylimidazolium methylsulfate]	1294.1
CCCCCCCCCCn1cc[n+](C)c1.O=S(=O)([N-]S(=O)(=O)C(F)(F)F)C(F)(F)F	1290
CCn1cc[n+](CC)c1.O=S(=O)([N-]S(=O)(=O)C(F)(F)F)C(F)(F)F [1,3-diethylimidazolium bis[(trifluoromethyl)sulfonyl]imide]	1475.3
CCOS(=O)(=O)[O-].CCn1cc[n+](C)c1 [1-ethyl-3-methylimidazolium ethyl sulfate]	1250.6

====

Settings: 293.15 K; 30000 kPa; Liquid
Numbers after ± are expanded uncertainties.
Quantity Name: mass density

CCOS(=O)(=O)[O-].CCn1cc[n+](C)c1 [1-ethyl-3-methylimidazolium ethyl sulfate]	1260.5 ± 4 kg/m3
CCn1cc[n+](CC)c1.O=S(=O)([N-]S(=O)(=O)C(F)(F)F)C(F)(F)F [1,3-diethylimidazolium bis[(trifluoromethyl)sulfonyl]imide]	1491.5 ± 6.8 kg/m3
CCn1cc[n+](C)c1.COS(=O)(=O)[O-] [1-ethyl-3-methylimidazolium methylsulfate]	1303.7 ± 4.4 kg/m3
CCCCCCCCCCn1cc[n+](C)c1.O=S(=O)([N-]S(=O)(=O)C(F)(F)F)C(F)(F)F	1304.7 ± 4.5 kg/m3

====

Measured mass density values are reported for all entries that follow.
Settings: 373.15 K; 35000 kPa; Liquid
Numbers after ± are expanded uncertainties.
Quantity Name: mass density

CCn1cc[n+](CC)c1.O=S(=O)([N-]S(=O)(=O)C(F)(F)F)C(F)(F)F [1,3-diethylimidazolium bis[(trifluoromethyl)sulfonyl]imide]	1416.7 ± 6.5 kg/m3
CCCCCCCCCCn1cc[n+](C)c1.O=S(=O)([N-]S(=O)(=O)C(F)(F)F)C(F)(F)F	1241.1 ± 4.1 kg/m3
CCOS(=O)(=O)[O-].CCn1cc[n+](C)c1 [1-ethyl-3-methylimidazolium ethyl sulfate]	1207.3 ± 3.7 kg/m3
CCn1cc[n+](C)c1.COS(=O)(=O)[O-] [1-ethyl-3-methylimidazolium methylsulfate]	1248 ± 4.2 kg/m3

====

Below, each entry is listed with its recorded mass density.
Details: 333.15 K; 15000 kPa; Liquid
Quantity Name: mass density (kg/m3)

CCn1cc[n+](CC)c1.O=S(=O)([N-]S(=O)(=O)C(F)(F)F)C(F)(F)F [1,3-diethylimidazolium bis[(trifluoromethyl)sulfonyl]imide]	1439.1
CCOS(=O)(=O)[O-].CCn1cc[n+](C)c1 [1-ethyl-3-methylimidazolium ethyl sulfate]	1225
CCCCCCCCCCn1cc[n+](C)c1.O=S(=O)([N-]S(=O)(=O)C(F)(F)F)C(F)(F)F	1258
CCn1cc[n+](C)c1.COS(=O)(=O)[O-] [1-ethyl-3-methylimidazolium methylsulfate]	1267.8

====

Details: 298.15 K; 10000 kPa; Liquid
Quantity Name: mass density (kg/m3)

CCCCCCCCCCn1cc[n+](C)c1.O=S(=O)([N-]S(=O)(=O)C(F)(F)F)C(F)(F)F	1286.4
CCOS(=O)(=O)[O-].CCn1cc[n+](C)c1 [1-ethyl-3-methylimidazolium ethyl sulfate]	1248.4
CCn1cc[n+](CC)c1.O=S(=O)([N-]S(=O)(=O)C(F)(F)F)C(F)(F)F [1,3-diethylimidazolium bis[(trifluoromethyl)sulfonyl]imide]	1471.4
CCn1cc[n+](C)c1.COS(=O)(=O)[O-] [1-ethyl-3-methylimidazolium methylsulfate]	1292.1

====

Each entry below carries its recorded mass density.
Conditions: 373.15 K; 7500 kPa; Liquid
Quantity Name: mass density (kg/m3)

CCOS(=O)(=O)[O-].CCn1cc[n+](C)c1 [1-ethyl-3-methylimidazolium ethyl sulfate]	1193.9
CCCCCCCCCCn1cc[n+](C)c1.O=S(=O)([N-]S(=O)(=O)C(F)(F)F)C(F)(F)F	1217.3
CCn1cc[n+](C)c1.COS(=O)(=O)[O-] [1-ethyl-3-methylimidazolium methylsulfate]	1235.2
CCn1cc[n+](CC)c1.O=S(=O)([N-]S(=O)(=O)C(F)(F)F)C(F)(F)F [1,3-diethylimidazolium bis[(trifluoromethyl)sulfonyl]imide]	1391.9

====

Conditions: 298.15 K; 20000 kPa; Liquid
Quantity Name: mass density (kg/m3)

CCCCCCCCCCn1cc[n+](C)c1.O=S(=O)([N-]S(=O)(=O)C(F)(F)F)C(F)(F)F	1293.5
CCn1cc[n+](CC)c1.O=S(=O)([N-]S(=O)(=O)C(F)(F)F)C(F)(F)F [1,3-diethylimidazolium bis[(trifluoromethyl)sulfonyl]imide]	1479
CCOS(=O)(=O)[O-].CCn1cc[n+](C)c1 [1-ethyl-3-methylimidazolium ethyl sulfate]	1252.7
CCn1cc[n+](C)c1.COS(=O)(=O)[O-] [1-ethyl-3-methylimidazolium methylsulfate]	1296.1
